Test system: Rtkn-GFP reporter in mouse embryonic stem (mES) cells
Protocol Text: ToxTracker genotoxicity assay, Rtkn-GFP reporter induction
Measurement Context: without S9 rat liver extract; concentration inducing 25% cytotoxicity; 24 h exposure
Assay Readout: Rtkn induction level (fold)
Respond numerically; units are fold and should not be typed.

Example entries and their recorded answers appear below.
| Molecule | Assay Readout | Unit Abbrev | Readout Value |
| --- | --- | --- | --- |
| CCCCOCC(CN1CC1)OC(=O)NCCCCCC/N=c1\oc(=O)n(CCCCCCNC(=O)OC(COCCCC)CN2CC2)c(=O)n1CCCCCCNC(=O)OC(COCCCC)CN1CC1 (stereo not drawn) | Rtkn induction level | fold | 1.1 |
| O=C(NCCCCCCn1c(=O)n(CCCCCCNC(=O)OCCN2CC2)c(=O)n(CCCCCCNC(=O)OCCN2CC2)c1=O)OCCN1CC1 | Rtkn induction level | fold | 2.4 |

IN: Entry under review: CCCCOCC(CN1CC1)OC(=O)NC1CCC(CC2CCC(NC(=O)OC(COCCCC)CN3CC3)CC2)CC1 (stereo not drawn) . Reported Rtkn induction level?
OUT: 1.5

IN: What Rtkn induction level value was documented for this molecule, CC(CN1CC1)OC(=O)NCCCCCCn1c(=O)n(CCCCCCNC(=O)OC(C)CN2CC2)c(=O)n(CCCCCCNC(=O)OC(C)CN2CC2)c1=O (stereo not drawn) ?
OUT: 1.8

IN: Any idea what Rtkn induction level was measured for CCCCCCCCCC(=O)OCC(CN1CC1)OC(=O)NCCCCCCn1c(=O)n(CCCCCCNC(=O)OC(COC(=O)CCCCCCCCC)CN2CC2)c(=O)n(CCCCCCNC(=O)OC(COC(=O)CCCCCCCCC)CN2CC2)c1=O (stereo not drawn) ?
OUT: 1.5

IN: Could you share which Rtkn induction level value was measured for CCCCOCC(CN1CC1)OC(=O)NCCCCCCn1c(=O)n(CCCCCCNC(=O)OC(COCCCC)CN2CC2)c(=O)n(CCCCCCNC(=O)OC(COCCCC)CN2CC2)c1=O (stereo not drawn) ?
OUT: 1.0

----------
Below, each of the molecules is paired with its reported Rtkn induction level value.
Tested on: Rtkn-GFP reporter in mouse embryonic stem (mES) cells
Protocol Text: ToxTracker genotoxicity assay, Rtkn-GFP reporter induction;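 further: GFP reporter signal quantified solely in intact single cells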
Measurement Context: without S9 rat liver extract; concentration inducing 10% cytotoxicity; 24 h exposure
Output spec: scalar in fold, unitless text.

These solved cases illustrate the format of a correct answer.
| Molecule | Rtkn induction level (fold) |
| --- | --- |
| CCCCOCC(CN1CC1)OC(=O)NC1CCC(CC2CCC(NC(=O)OC(COCCCC)CN3CC3)CC2)CC1 (stereo not drawn) | 1.2 |
| CCCCOCC(CN1CC1)OC(=O)NCCCCCCn1c(=O)n(CCCCCCNC(=O)OC(COCCCC)CN2CC2)c(=O)n(CCCCCCNC(=O)OC(COCCCC)CN2CC2)c1=O (stereo not drawn) | 1.0 |
| CC(CN1CC1)OC(=O)NCCCCCCn1c(=O)n(CCCCCCNC(=O)OC(C)CN2CC2)c(=O)n(CCCCCCNC(=O)OC(C)CN2CC2)c1=O (stereo not drawn) | 1.3 |

IN: Bench note: what Rtkn induction level did CCCCCCCCCC(=O)OCC(CN1CC1)OC(=O)NCCCCCCn1c(=O)n(CCCCCCNC(=O)OC(COC(=O)CCCCCCCCC)CN2CC2)c(=O)n(CCCCCCNC(=O)OC(COC(=O)CCCCCCCCC)CN2CC2)c1=O (stereo not drawn) show?
OUT: 1.3

IN: Look up Rtkn induction level: `O=C(NCCCCCCn1c(=O)n(CCCCCCNC(=O)OCCN2CC2)c(=O)n(CCCCCCNC(=O)OCCN2CC2)c1=O)OCCN1CC1`
OUT: 1.7

IN: Which Rtkn induction level is listed for CCCCOCC(CN1CC1)OC(=O)NCCCCCC/N=c1\oc(=O)n(CCCCCCNC(=O)OC(COCCCC)CN2CC2)c(=O)n1CCCCCCNC(=O)OC(COCCCC)CN1CC1 (stereo not drawn) ?
OUT: 1.0
